Readings of Kd for the listed binders
Biological target: T1, tissue factor (S33 to E251) (Homo sapiens, UniProt P13726)
T1 construct: tissue factor (TF), residues S33 to E251; the antigen of the antibody D3h44 in PDB 1JPS; The tag was removed with Ulp1; tag-free TF was used; Antigen residues named in the text (S202, K169, P194, I152) follow the numbering of PDB 1JPS, not that of the construct limits; also called TF; antigen; source: E. coli BL21 (DE3), purified (Ni-NTA, SEC); not shown: His6, N-terminal, cleaved; SUMO, …
T1 sequence (P13726 33-251): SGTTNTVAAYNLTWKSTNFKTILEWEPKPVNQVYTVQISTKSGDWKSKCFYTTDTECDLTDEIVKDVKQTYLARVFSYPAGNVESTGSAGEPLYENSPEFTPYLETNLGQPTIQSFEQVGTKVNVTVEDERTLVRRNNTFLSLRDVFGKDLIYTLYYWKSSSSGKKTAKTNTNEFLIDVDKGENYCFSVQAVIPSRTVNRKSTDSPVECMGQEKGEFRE
Assay: SPR; Biacore 8K; TF immobilised on a CM5 chip by amine coupling (450-750 response units); Fab as analyte; single-cycle kinetics, association 120 s, dissociation 1800 s, no regeneration; PBS with 0.005% Tween-20; three measurements
Details: both partners purified
Dear colleague, please return just the value in nM, with no unit written.

binder	Kd, nM
D3h44 Fab H-N57Y (Fab, V domains shown, as the heavy chain of m2 (PDB 1JPS chain H) with the stated change; as the light chain of m2 (PDB 1JPS chain L); Tag as for m2; source: ExpiCHO, purified (Ni-NTA, SEC)) VH: EVQLVESGGGLVQPGGSLRLSCAASGFNIKEYYMHWVRQAPGKGLEWVGLIDPEQGYTIYDPKFQDRATISADNSKNTAYLQMNSLRAEDTAVYYCARDTAAYFDYWGQGTLVTVSS VL: DIQMTQSPSSLSASVGDRVTITCRASRDIKSYLNWYQQKPGKAPKVLIYYATSLAEGVPSRFSGSGSGTDYTLTISSLQPEDFATYYCLQHGESPWTFGQGTKVEIK	0.015
D3h44 Fab L-N34D/L-H91S double-point mutant (Fab, V domains shown, as the heavy chain of m2 (PDB 1JPS chain H); as the light chain of m2 (PDB 1JPS chain L) with the stated changes; Tag as for m2; source: ExpiCHO, purified (Ni-NTA, SEC)) VH: EVQLVESGGGLVQPGGSLRLSCAASGFNIKEYYMHWVRQAPGKGLEWVGLIDPEQGNTIYDPKFQDRATISADNSKNTAYLQMNSLRAEDTAVYYCARDTAAYFDYWGQGTLVTVSS VL: DIQMTQSPSSLSASVGDRVTITCRASRDIKSYLDWYQQKPGKAPKVLIYYATSLAEGVPSRFSGSGSGTDYTLTISSLQPEDFATYYCLQSGESPWTFGQGTKVEIK	0.025
D3h44 Fab H-A101V (Fab, V domains shown, as the heavy chain of m2 (PDB 1JPS chain H) with the stated change; as the light chain of m2 (PDB 1JPS chain L); Tag as for m2; source: ExpiCHO, purified (Ni-NTA, SEC)) VH: EVQLVESGGGLVQPGGSLRLSCAASGFNIKEYYMHWVRQAPGKGLEWVGLIDPEQGNTIYDPKFQDRATISADNSKNTAYLQMNSLRAEDTAVYYCARDTVAYFDYWGQGTLVTVSS VL: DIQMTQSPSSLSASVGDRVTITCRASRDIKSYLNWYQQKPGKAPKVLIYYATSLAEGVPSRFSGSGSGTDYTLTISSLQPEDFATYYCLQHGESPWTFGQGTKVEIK	0.14

So what does the record say about Kd for D3h44 Fab H-K30Q/H-E54H double-point mutant (Fab, V domains shown, as the heavy chain of m2 (PDB 1JPS chain H) with the stated changes; as the light chain of m2 (PDB 1JPS chain L); Tag as for m2; source: ExpiCHO, purified (Ni-NTA, SEC)) VH: EVQLVESGGGLVQPGGSLRLSCAASGFNIQEYYMHWVRQAPGKGLEWVGLIDPHQGNTIYDPKFQDRATISADNSKNTAYLQMNSLRAEDTAVYYCARDTAAYFDYWGQGTLVTVSS VL: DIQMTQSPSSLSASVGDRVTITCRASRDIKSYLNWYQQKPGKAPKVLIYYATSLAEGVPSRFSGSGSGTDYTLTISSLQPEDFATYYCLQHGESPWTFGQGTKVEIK ?
0.029

So what does the record say about Kd for D3h44 Fab H-A101S/H-A102H double-point mutant (Fab, V domains shown, as the heavy chain of m2 (PDB 1JPS chain H) with the stated changes; as the light chain of m2 (PDB 1JPS chain L); Tag as for m2; source: ExpiCHO, purified (Ni-NTA, SEC)) VH: EVQLVESGGGLVQPGGSLRLSCAASGFNIKEYYMHWVRQAPGKGLEWVGLIDPEQGNTIYDPKFQDRATISADNSKNTAYLQMNSLRAEDTAVYYCARDTSHYFDYWGQGTLVTVSS VL: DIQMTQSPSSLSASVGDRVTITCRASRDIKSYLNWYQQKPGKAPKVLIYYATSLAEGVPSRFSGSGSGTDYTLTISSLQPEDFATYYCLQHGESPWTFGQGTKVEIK ?
0.15

Values from paper PMC7567794
